molecular target: human A3 receptors (Homo sapiens, UniProt P0DMS8); construct: expressed in transfected cells; assay: Displacement of specific [125I]AB-MECA binding at human A3 receptors expressed in HEK cells, in membranes; conditions: Table 3; [125I]AB-MECA, HEK cell membranes, n = 3-4; read-out: hA3 Ki ± S.E.M.
pKi: −log10 of the molar value.
Label rule met for high-side pKi (at or above 5) and rule not met for low-side pKi (below it).

Q: # bool: pKi of CCOC(=O)C1=C(c2ccccc2)NC(CC)=C(C(=O)SCC)C1CC (racemic) >= 5
Ans: rule met

Q: # bool: pKi of CCSC(=O)C1=C(C)NC(c2ccccc2)=C(C(=O)OCc2ccccc2)C1CC (racemic) >= 5
Ans: rule met

Q: # bool: pKi of CCOC(=O)C1=C(C)NC(c2ccccc2)=C(C(=O)OCC)C1C=O (racemic) >= 5
Ans: rule not met

Q: # bool: pKi of CCOC(=O)C1=C(c2ccccc2)NC(C)=C(C(=O)SCCOC)C1CC (racemic) >= 5
Ans: rule met

Q: # bool: pKi of CCCC1=C(C(=O)SCC)C(CC)C(C(=O)OCC)=C(c2ccccc2)N1 (racemic) >= 5
Ans: rule met

Q: # bool: pKi of CCOC(=O)C1=C(C)NC(c2ccccc2)=C(C(=O)OCC)C1C(OC)OC (racemic) >= 5
Ans: rule not met

Q: # bool: pKi of CCOC(=O)C1=C(C)NC(C2CCCC2)=C(C(=O)OCc2ccccc2)C1C#Cc1ccccc1 (racemic) >= 5
Ans: rule met

---

target: rat A3 receptors (Rattus norvegicus, UniProt P28647); construct: expressed in transfected cells; assay: Displacement of specific [125I]AB-MECA binding at rat A3 receptors stably expressed in CHO cells; conditions: Table 4; ratio of affinities rat A1 vs rat A3
Sequence (P28647 whole entry): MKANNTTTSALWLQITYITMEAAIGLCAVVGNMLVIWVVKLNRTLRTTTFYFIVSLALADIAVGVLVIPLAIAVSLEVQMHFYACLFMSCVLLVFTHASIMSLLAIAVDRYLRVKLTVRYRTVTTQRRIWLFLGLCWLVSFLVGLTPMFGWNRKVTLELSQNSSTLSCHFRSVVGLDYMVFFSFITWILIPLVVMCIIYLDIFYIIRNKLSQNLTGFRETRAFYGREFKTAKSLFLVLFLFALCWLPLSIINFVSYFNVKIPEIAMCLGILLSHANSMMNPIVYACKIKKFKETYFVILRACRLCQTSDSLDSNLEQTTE
Answer each item with its documented rA1/rA3.

Q: Returns the measured rA1/rA3 for the input compound. Input: CCSC(=O)c1c(C)nc(-c2ccccc2)c(C(=O)OCc2ccccc2)c1CC
Ans: >50

Q: Returns the measured rA1/rA3 for the input compound. Input: CCSC(=O)c1c(CC)nc(-c2ccccc2)c(C(=O)OCCO)c1CC
Ans: 6.1

Q: Returns the measured rA1/rA3 for the input compound. Input: CCCOC(=O)c1c(-c2ccccc2)nc(CC)c(C(=O)SCC)c1CCC [Compound 49b]
Ans: 140

Q: Returns the measured rA1/rA3 for the input compound. Input: CCCC1=C(C(=O)SCC)C(CC)C(C(=O)OCC)=C(c2ccccc2)N1 (racemic)
Ans: >30

Q: Returns the measured rA1/rA3 for the input compound. Input: CCCOC(=O)c1c(-c2ccccc2)nc(CC)c(C(=O)SCC)c1CC [Compound 49a]
Ans: 42

Q: Returns the measured rA1/rA3 for the input compound. Input: CCOC(=O)C1=C(c2ccccc2)NC(CC)=C(C(=O)SCC)C1CC (racemic)
Ans: >30

---

biological target: rat A3 receptors (Rattus norvegicus, UniProt P28647); construct: expressed in transfected cells; experiment: Displacement of specific [125I]AB-MECA binding at rat A3 receptors stably expressed in CHO cells; conditions: Table 4; [125I]AB-MECA, CHO cells, n = 3-5; read-out: rA3 Ki
Answer each item with its documented pKi.
Scale explanation: pKi corresponds to minus log10 of a concentration expressed in moles per litre.

Q: Returns the measured pKi for the input compound. Input: CCOC(=O)c1c(C2CCCC2)nc(CC)c(C(=O)SCC)c1CC
Ans: 5.55

Q: Returns the measured pKi for the input compound. Input: CCOC(=O)c1c(-c2ccccc2)nc(C)c(C(=O)SCC)c1CC
Ans: 5.83

Q: Returns the measured pKi for the input compound. Input: CCCOC(=O)c1c(-c2ccccc2)nc(CC)c(C(=O)SCC)c1CC [Compound 49a]
Ans: 6.74

Q: Returns the measured pKi for the input compound. Input: CCOC(=O)c1c(-c2cccc(Cl)c2)nc(CC)c(C(=O)SCC)c1CC
Ans: 6.36

Q: Returns the measured pKi for the input compound. Input: CCCCc1nc(-c2ccccc2)c(C(=O)OCC)c(CC)c1C(=O)SCC
Ans: 5.65

---

Answer each item with its documented rA3/hA3.
target: rat A3 receptors (Rattus norvegicus); construct: expressed in transfected cells; experiment: Displacement of specific [125I]AB-MECA binding at rat A3 receptors stably expressed in CHO cells; conditions: Table 4; ratio of affinities at rat vs. human A3 receptors

Q: Returns the measured rA3/hA3 for the input compound. Input: CCCCc1nc(-c2ccccc2)c(C(=O)OCC)c(CC)c1C(=O)SCC
Ans: 64

Q: Returns the measured rA3/hA3 for the input compound. Input: CCOC(=O)c1c(-c2cccc(Cl)c2)nc(CC)c(C(=O)SCC)c1CC
Ans: 33

Q: Returns the measured rA3/hA3 for the input compound. Input: CCCc1c(C(=O)SCC)c(C)nc(-c2ccccc2)c1C(=O)OCC
Ans: 3.4

Q: Returns the measured rA3/hA3 for the input compound. Input: CCCOC(=O)c1c(-c2ccccc2)nc(CC)c(C(=O)SCC)c1CC [Compound 49a]
Ans: 22

Q: Returns the measured rA3/hA3 for the input compound. Input: CCOC(=O)c1c(-c2ccccc2)nc(C)c(C(=O)SCC)c1CC
Ans: 34

Q: Returns the measured rA3/hA3 for the input compound. Input: CCOC(=O)C1=C(c2ccccc2)NC(CC)=C(C(=O)SCC)C1CC (racemic)
Ans: 2.8

Q: Returns the measured rA3/hA3 for the input compound. Input: CCOC(=O)c1c(C2CCCC2)nc(CC)c(C(=O)SCC)c1CC
Ans: 0.83

Q: Returns the measured rA3/hA3 for the input compound. Input: CCSC(=O)c1c(C)nc(-c2ccccc2)c(C(=O)OCc2ccccc2)c1CC
Ans: 0.69

Q: Returns the measured rA3/hA3 for the input compound. Input: CCOC(=O)c1c(-c2ccccc2)nc(CC)c(C(=O)SCC)c1CC
Ans: 21

Q: Returns the measured rA3/hA3 for the input compound. Input: CCSC(=O)c1c(CC)nc(-c2ccccc2)c(C(=O)OCCO)c1CC
Ans: 15

Q: Returns the measured rA3/hA3 for the input compound. Input: CCCSC(=O)c1c(CC)nc(-c2ccccc2)c(C(=O)OCC)c1CC
Ans: 18

Q: Returns the measured rA3/hA3 for the input compound. Input: CCCc1nc(-c2ccccc2)c(C(=O)OCC)c(CC)c1C(=O)SCC
Ans: 18

Q: Returns the measured rA3/hA3 for the input compound. Input: CCSC(=O)C1=C(C)NC(c2ccccc2)=C(C(=O)OCc2ccccc2)C1CC (racemic)
Ans: 1.7

Q: Returns the measured rA3/hA3 for the input compound. Input: CCCOC(=O)c1c(-c2ccccc2)nc(CC)c(C(=O)SCC)c1CCC [Compound 49b]
Ans: 6.0

Q: Returns the measured rA3/hA3 for the input compound. Input: CCCC1=C(C(=O)SCC)C(CC)C(C(=O)OCC)=C(c2ccccc2)N1 (racemic)
Ans: 1.3

---

Answer each item with its documented rA1/hA3.
Molecular target: human A3 receptors (Homo sapiens, UniProt P0DMS8)
Construct: expressed in transfected cells
Sequence (P0DMS8 1-318): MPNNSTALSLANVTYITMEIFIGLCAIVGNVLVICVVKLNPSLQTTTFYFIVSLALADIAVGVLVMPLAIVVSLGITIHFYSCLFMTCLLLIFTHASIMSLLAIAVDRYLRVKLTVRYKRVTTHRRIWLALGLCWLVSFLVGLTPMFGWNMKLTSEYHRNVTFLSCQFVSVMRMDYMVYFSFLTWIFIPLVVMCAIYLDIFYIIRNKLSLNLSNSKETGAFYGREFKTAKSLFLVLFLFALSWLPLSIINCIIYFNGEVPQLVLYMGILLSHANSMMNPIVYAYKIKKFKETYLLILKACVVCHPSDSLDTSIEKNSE
Experiment: Displacement of specific [125I]AB-MECA binding at human A3 receptors expressed in HEK cells, in membranes
Settings: Table 3; ratio of affinities rat A1 vs human A3

Q: Returns the measured rA1/hA3 for the input compound. Input: CCCC1=C(C(=O)SCC)C(CC)C(C(=O)OCC)=C(c2ccccc2)N1 (racemic)
Ans: >20

Q: Returns the measured rA1/hA3 for the input compound. Input: CCSC(=O)C1=C(C)NC(c2ccccc2)=C(C(=O)OCc2ccccc2)C1CC (racemic)
Ans: >50

Q: Returns the measured rA1/hA3 for the input compound. Input: CCOC(=O)C1=C(c2ccccc2)NC(CC)=C(C(=O)SCC)C1CC (racemic)
Ans: >50

Q: Returns the measured rA1/hA3 for the input compound. Input: CCOC(=O)C1=C(c2ccccc2)NC(C)=C(C(=O)SCCOC)C1CC (racemic)
Ans: >10

Q: Returns the measured rA1/hA3 for the input compound. Input: CCOC(=O)C1=C(C)NC(c2ccccc2)=C(C(=O)OCC)C1C(OC)OC (racemic)
Ans: >5

Q: Returns the measured rA1/hA3 for the input compound. Input: CCOC(=O)C1=C(C)NC(c2ccccc2)=C(C(=O)OCC)C1C=O (racemic)
Ans: >6

Q: Returns the measured rA1/hA3 for the input compound. Input: CCOC(=O)C1=C(C)NC(C2CCCC2)=C(C(=O)OCc2ccccc2)C1C#Cc1ccccc1 (racemic)
Ans: 340
